Reference for the values: ChEMBL document CHEMBL4325889

Tested on: HCT-15
Test: Growth inhibition of human HCT15 cells at 10 uM after 48 hrs by SRB assay relative to control
Assay type: functional
Conditions: HCT-15, 48 h, read-out: GI
parameter.measured: inhibition of growth at 10 µM (%)

• COc1cc2oc(-c3cccc(C(=O)Nc4ccc5c(c4)OCO5)c3)cc(=O)c2c(O)c1OC = 6.45
• COc1cccc(NC(=O)c2cccc(-c3cc(=O)c4c(OC)c(OC)c(OC)cc4o3)c2)c1 = 45.3
• COc1cc2oc(-c3cccc(C(=O)Nc4ccccc4)c3)cc(=O)c2c(OC)c1OC = 20.8
• COc1cccc(C(=O)Nc2cccc(-c3cc(=O)c4c(OC)c(OC)c(OC)cc4o3)c2)c1 = 46.6
